The molecules listed here are annotated with their Dmax at 3 µM.
- tested.on: MycN (Homo sapiens)
- Construct: endogenous in cells; host or cells: SK-N-BE(2)
- assay.notes: Degradation of MycN protein in SK-N-BE(2) cells, JESS/Western blot of lysates
- Assay type: cell-based
- condition.summary: SKNBE2, 24 h, SKNBE2 cells, 24 h, 3 μM; read-out: % Degradation of MycN (SKNBE2) 24 h, 3 μM
outcome.measure: Dmax at 3 µM

molecule	observed.measurement
CN(C)[C@H]1CCN(c2nccc(Nc3cc(C4CC4)[nH]n3)n2)C1 [Compound 9]	< 20%
c1cc(Nc2cc(C3CC3)[nH]n2)nc(N2C[C@H]3CNC[C@@H]3C2)n1 (racemic) [Compound 50]	50 to 79%
CN(C)C[C@H]1CCN(c2nccc(Nc3cc(C4CCCC4)[nH]n3)n2)C1 [Compound 111]	< 20%
NCC12CCC(C1)N(c1nccc(Nc3cc(C4CC4)[nH]n3)n1)C2 (stereo not shown) [Compound 113]	80 to 100%

* * *

- tested.on: MycC (Homo sapiens)
- Construct: endogenous in cells; host or cells: L363
- Sequence (P01106 whole entry): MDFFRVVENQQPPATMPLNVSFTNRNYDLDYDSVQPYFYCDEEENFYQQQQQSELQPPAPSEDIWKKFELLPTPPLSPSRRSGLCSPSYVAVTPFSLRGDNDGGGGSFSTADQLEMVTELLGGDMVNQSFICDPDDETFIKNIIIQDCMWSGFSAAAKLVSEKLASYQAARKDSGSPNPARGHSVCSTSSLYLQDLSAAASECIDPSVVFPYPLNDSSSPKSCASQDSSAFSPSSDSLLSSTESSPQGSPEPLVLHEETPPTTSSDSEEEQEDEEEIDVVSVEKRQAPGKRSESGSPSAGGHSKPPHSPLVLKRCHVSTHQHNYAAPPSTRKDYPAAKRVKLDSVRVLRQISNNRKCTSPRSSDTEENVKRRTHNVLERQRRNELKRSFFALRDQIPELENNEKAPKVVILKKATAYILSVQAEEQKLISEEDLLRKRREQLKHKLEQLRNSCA
- assay.notes: Degradation of MycC protein in L363 cells, JESS/Western blot of lysates
- Assay type: cell-based
- condition.summary: L-363, 24 h, L-363 cells, 24 h, 1 μM; read-out: % Degradation of MycC (L-363) 24 h, 1 μM
The compounds listed here are annotated with their Dmax at 1 µM.
outcome.measure: Dmax at 1 µM

compound	outcome.measure	observed.measurement
c1cc(Nc2cc(C3CC3)[nH]n2)nc(N2C[C@H]3CNC[C@H]3C2)n1 [Compound 18]	Dmax at 1 µM	< 20%
CN1C[C@H]2CN(c3nccc(Nc4cc(C5CC5)[nH]n4)n3)C[C@H]21 [Compound 40]	Dmax at 1 µM	< 20%
CNCC12CCC(C1)N(c1nccc(Nc3cc(C4CC4)[nH]n3)n1)C2 (stereo not drawn) [Compound 45]	Dmax at 1 µM	80 to 100%
FC(F)(F)CNCC12CC(C1)N(c1nccc(Nc3cc(C4CCCC4)[nH]n3)n1)C2 [Compound 71]	Dmax at 1 µM	80 to 100%
CN1CCCC2(C1)CN(c1nccc(Nc3cc(C4CC4)[nH]n3)n1)C2 [Compound 104]	Dmax at 1 µM	< 20%
CNC[C@H]1CCN(c2nccc(Nc3cc(C4CC4)[nH]n3)n2)C1 [Compound 7]	Dmax at 1 µM	< 20%
CN[C@H]1CCN(c2nccc(Nc3cc(C4CC4)[nH]n3)n2)C1 [Compound 8]	Dmax at 1 µM	< 20%
CN1CC2(C1)CN(c1nccc(Nc3cc(C4CC4)[nH]n3)n1)C2 [Compound 4]	Dmax at 1 µM	20 to 49%
CNC[C@H]1CCN(c2nccc(Nc3cc(C4CCCC4)[nH]n3)n2)C1 [Compound 35]	Dmax at 1 µM	< 20%

* * *

- tested.on: MycN (Homo sapiens, UniProt P04198)
- Construct: endogenous in cells; host or cells: SK-N-BE(2)
- Sequence (P04198 1-464): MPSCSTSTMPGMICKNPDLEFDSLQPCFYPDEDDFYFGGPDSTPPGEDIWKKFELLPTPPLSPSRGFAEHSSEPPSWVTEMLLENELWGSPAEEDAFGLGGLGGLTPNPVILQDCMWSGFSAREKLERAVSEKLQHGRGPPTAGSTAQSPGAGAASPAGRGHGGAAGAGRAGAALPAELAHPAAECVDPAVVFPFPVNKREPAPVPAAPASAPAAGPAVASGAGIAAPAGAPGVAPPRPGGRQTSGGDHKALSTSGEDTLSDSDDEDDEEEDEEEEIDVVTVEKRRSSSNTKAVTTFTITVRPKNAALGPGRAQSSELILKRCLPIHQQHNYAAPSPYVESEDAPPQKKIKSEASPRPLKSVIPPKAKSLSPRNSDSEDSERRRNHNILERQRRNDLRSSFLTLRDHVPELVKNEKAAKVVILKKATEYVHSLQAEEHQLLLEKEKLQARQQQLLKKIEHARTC
- assay.notes: Degradation of MycN protein in SK-N-BE(2) cells, JESS/Western blot of lysates
- Format: cell-based
- condition.summary: SKNBE2, 24 h, SKNBE2 cells, 24 h, 0.5 μM; read-out: % Degradation of MycN (SKNBE2) 24 h, 0.5 μM

compound	tested.on	Dmax at 0.5 µM
CN1CC2(CCCN(c3nccc(Nc4cc(C5CC5)[nH]n4)n3)C2)C1	MycN (Homo sapiens, UniProt P04198)	20 to 49%
NC[C@H]1CCN(c2nccc(Nc3cc(C4CC4)[nH]n3)n2)C1	MycN (Homo sapiens, UniProt P04198)	< 20%
CN(C)C[C@H]1CCN(c2nccc(Nc3cc(C4CC4)[nH]n3)n2)C1 (stereo in doubt)	MycN (Homo sapiens, UniProt P04198)	20 to 49%
CN(C)C[C@H]1CCN(c2nccc(Nc3cc(C4CCCC4)[nH]n3)n2)C1	MycN (Homo sapiens, UniProt P04198)	< 20%

* * *

- tested.on: MycN (Homo sapiens, UniProt P04198)
- Construct: endogenous in cells; host or cells: SK-N-BE(2)
- assay.notes: Degradation of MycN protein in SK-N-BE(2) cells, JESS/Western blot of lysates
- Assay type: cell-based
- condition.summary: SKNBE2, 24 h, SKNBE2 cells, 24 h, 3 μM; read-out: % Degradation of MycN (SKNBE2) 24 h, 3 μM
- Protocol: For L363 cells (suspension), 1E6 cells were plated into each well of a 6 well plate. For SK-N-BE(2) cells (adherent), 5E5 cells were plated into each well of a 6 well dish. […] Once an appropriate lysate concentration and antibody concentration was determined, samples were screened in the JESS technology (Protein Simple, San Jose, CA—https://www.proteinsimple.com/jess.html). […]

molecule	tested.on	Dmax at 3 µM
NC[C@@H]1CN(c2nccc(Nc3cc(C4CCCC4)[nH]n3)n2)C[C@@H]1F [Compound 123-1]	MycN (Homo sapiens, UniProt P04198)	50 to 79%
c1cc(Nc2cc(C3CC3)[nH]n2)nc(N2CCC(C3CNC3)C2)n1 (racemic) [Compound 39]	MycN (Homo sapiens, UniProt P04198)	20 to 49%
NC[C@@H]1CCN(c2nccc(Nc3cc(C4CCCC4)[nH]n3)n2)C1 [Compound 110]	MycN (Homo sapiens, UniProt P04198)	50 to 79%
NCC1CN(c2nccc(Nc3cc(C4CCCC4)[nH]n3)n2)CC(F)(F)C1 (stereo not shown) [Compound 115]	MycN (Homo sapiens, UniProt P04198)	80 to 100%

* * *

The molecules listed here are annotated with their Dmax at 6 µM.
- tested.on: MycC (Homo sapiens)
- Construct: endogenous in cells; host or cells: L363
- assay.notes: Degradation of MycC protein in L363 cells, JESS/Western blot of lysates
- Assay type: cell-based
- condition.summary: L-363, 24 h, L-363 cells, 24 h, 6 μM; read-out: % Degradation of MycC (L-363) 24 h, 6 μM

molecule	Dmax at 6 µM
c1cc(Nc2cc(C3CC3)[nH]n2)nc(N2C[C@H]3CNC[C@H]3C2)n1	20 to 49%
CNCC12CC(C1)N(c1nccc(Nc3cc(C4CCC4)[nH]n3)n1)C2	80 to 100%
CN1C[C@@H]2CN(c3nccc(Nc4cc(C5CC5)[nH]n4)n3)C[C@@H]2C1	20 to 49%
CN1CC(C2CCN(c3nccc(Nc4cc(C5CC5)[nH]n4)n3)C2)C1 (centres unmarked)	< 20%
CNC[C@@H]1CCN(c2nccc(Nc3cc(C4CCCC4)[nH]n3)n2)C1	80 to 100%
CN1CC2(CCN(c3nccc(Nc4cc(C5CCCC5)[nH]n4)n3)C2)C1	< 20%
c1cc(Nc2cc(C3CCCC3)[nH]n2)nc(N2CC3(CN4CCOCC4)CC2C3)n1	80 to 100%
CN(C)[C@H]1CCN(c2nccc(Nc3cc(C4CC4)[nH]n3)n2)C1	80 to 100%

* * *

The molecules listed here are annotated with their Dmax at 0.5 µM.
- tested.on: MycN (Homo sapiens)
- Construct: endogenous in cells; host or cells: SK-N-BE(2)
- assay.notes: Degradation of MycN protein in SK-N-BE(2) cells, JESS/Western blot of lysates
- Format: cell-based
- condition.summary: SKNBE2, 24 h, SKNBE2 cells, 24 h, 0.5 μM; read-out: % Degradation of MycN (SKNBE2) 24 h, 0.5 μM

smiles.data	tested.on	Dmax at 0.5 µM
CNCC12CC(C1)N(c1nccc(Nc3cc(C4CCC4)[nH]n3)n1)C2	MycN (Homo sapiens)	20 to 49%
CNC[C@@H]1CCCN(c2nccc(Nc3cc(C4CC4)[nH]n3)n2)C1	MycN (Homo sapiens)	20 to 49%
NC[C@H]1CN(c2nccc(Nc3cc(C4CCCC4)[nH]n3)n2)CCO1	MycN (Homo sapiens)	20 to 49%
NC[C@H]1CCN(c2nccc(Nc3cc(C4CCCC4)[nH]n3)n2)C1	MycN (Homo sapiens)	20 to 49%
CN1C[C@@H]2CN(c3nccc(Nc4cc(C5CC5)[nH]n4)n3)C[C@@H]2C1	MycN (Homo sapiens)	20 to 49%
c1cc(Nc2cc(C3CCCC3)[nH]n2)nc(N2CC3(CCCNC3)C2)n1	MycN (Homo sapiens)	< 20%
CNCC12CC(C1)N(c1nccc(Nc3cc(C4CCCC4)[nH]n3)n1)C2	MycN (Homo sapiens)	80 to 100%
NC[C@H]1CN(c2nccc(Nc3cc(C4CCCC4)[nH]n3)n2)C[C@H]1F	MycN (Homo sapiens)	20 to 49%
